- TEST_SYSTEM: T1, human LAP-TGFB1 Fc fusion (human)
- T1 construct: also called human LAP-TGFβ1-Fc; human LAP-TGFβ-Fc isoform 1
- T1 sequence (chain, as listed by the source limits assumed): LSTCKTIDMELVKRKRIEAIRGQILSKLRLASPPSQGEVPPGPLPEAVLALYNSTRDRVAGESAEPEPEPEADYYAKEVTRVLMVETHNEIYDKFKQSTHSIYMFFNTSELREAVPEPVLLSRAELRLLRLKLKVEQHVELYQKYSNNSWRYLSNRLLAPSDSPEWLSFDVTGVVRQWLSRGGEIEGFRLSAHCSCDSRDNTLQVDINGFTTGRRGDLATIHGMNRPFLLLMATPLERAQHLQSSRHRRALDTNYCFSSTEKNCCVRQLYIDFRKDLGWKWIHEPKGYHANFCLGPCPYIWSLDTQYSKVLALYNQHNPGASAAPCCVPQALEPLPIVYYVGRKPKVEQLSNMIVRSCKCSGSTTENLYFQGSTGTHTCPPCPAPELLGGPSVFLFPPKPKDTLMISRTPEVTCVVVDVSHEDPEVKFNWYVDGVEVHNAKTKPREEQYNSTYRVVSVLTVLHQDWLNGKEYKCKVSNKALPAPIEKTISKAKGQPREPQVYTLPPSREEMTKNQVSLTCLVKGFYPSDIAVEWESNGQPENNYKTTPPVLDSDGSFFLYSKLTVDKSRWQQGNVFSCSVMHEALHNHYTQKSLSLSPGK
- PROTOCOL_SUMMARY: SPR pH 7.4, antigen-Fc captured, Fab analyte
pKd: −log10 of the molar value.
Readings of pKd for the listed binders
ENDPOINT: pKd

• 63BLH (Fab, V domains shown, also called 15BLM Fab; 015BLM Fab) VH: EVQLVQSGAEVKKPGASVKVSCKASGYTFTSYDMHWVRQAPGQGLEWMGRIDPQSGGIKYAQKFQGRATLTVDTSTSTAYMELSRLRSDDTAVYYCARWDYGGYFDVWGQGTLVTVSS VL: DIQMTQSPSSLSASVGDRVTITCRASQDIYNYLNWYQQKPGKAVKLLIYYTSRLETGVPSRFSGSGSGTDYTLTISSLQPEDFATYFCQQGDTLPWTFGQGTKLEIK = 9.53
• 65BLH (Fab, V domains shown, also called 17BLM Fab) VH: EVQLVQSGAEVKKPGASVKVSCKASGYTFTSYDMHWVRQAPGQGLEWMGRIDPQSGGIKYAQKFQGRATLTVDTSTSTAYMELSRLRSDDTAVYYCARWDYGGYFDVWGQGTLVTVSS VL: DIQMTQSPSSLSASVGDRVTITCRASQDIYNYLNWYQQKPGKAVKLLIYYTSRLETGVPSRFSGSGSGTDYTLTISSLQPEDFATYFCQQGDELPWTFGQGTKLEIK = 9.84
• 58BLH (Fab, V domains shown, also called 10BLM Fab) VH: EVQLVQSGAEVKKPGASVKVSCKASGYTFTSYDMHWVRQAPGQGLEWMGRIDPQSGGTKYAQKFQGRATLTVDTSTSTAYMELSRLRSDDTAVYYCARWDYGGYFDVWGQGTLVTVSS VL: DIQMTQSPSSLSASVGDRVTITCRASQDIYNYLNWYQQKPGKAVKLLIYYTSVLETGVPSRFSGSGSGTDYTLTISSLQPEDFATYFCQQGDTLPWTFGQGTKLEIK = 10.28
• 20E6 Fab (80BGJ/85BIT) (Fab, V domains shown, also called 20E6 (80BGJ); 20E6 (85BIT)) VH: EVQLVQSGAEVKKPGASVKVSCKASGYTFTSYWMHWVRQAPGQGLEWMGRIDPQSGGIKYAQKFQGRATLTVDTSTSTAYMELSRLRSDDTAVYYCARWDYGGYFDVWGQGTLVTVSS VL: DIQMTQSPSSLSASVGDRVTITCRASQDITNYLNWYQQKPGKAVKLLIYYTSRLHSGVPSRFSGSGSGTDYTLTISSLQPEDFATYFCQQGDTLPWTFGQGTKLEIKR = 7.23
• 68BLH (Fab, V domains shown, also called 20BLM Fab) VH: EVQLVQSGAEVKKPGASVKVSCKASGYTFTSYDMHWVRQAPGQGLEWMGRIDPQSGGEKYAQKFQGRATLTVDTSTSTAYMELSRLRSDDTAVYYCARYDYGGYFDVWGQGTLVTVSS VL: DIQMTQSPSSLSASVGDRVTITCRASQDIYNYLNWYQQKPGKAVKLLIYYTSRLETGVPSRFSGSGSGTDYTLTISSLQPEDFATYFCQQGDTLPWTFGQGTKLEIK = 9.36
